SYSTEM NAME: UniProt P18130
Sequence (P18130 whole entry): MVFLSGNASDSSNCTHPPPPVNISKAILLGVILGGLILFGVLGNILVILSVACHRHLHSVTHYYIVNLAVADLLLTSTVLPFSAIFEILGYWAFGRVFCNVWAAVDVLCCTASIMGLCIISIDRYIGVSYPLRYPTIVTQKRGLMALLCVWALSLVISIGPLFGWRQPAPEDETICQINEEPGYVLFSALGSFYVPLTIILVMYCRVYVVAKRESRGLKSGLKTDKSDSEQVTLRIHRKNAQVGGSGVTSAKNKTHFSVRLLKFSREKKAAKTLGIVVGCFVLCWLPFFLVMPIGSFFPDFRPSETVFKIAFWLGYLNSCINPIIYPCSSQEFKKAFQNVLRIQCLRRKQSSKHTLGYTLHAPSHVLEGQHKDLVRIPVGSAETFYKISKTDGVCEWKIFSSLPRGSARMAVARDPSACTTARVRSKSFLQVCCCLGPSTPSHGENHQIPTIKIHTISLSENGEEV
ASSAY COMMENT: biochemical
Type: binding, bovine
SETTINGS: [3H]-prazosin radioligand; cloned receptor in LTK cell membranes; read-out: Radioligand Binding (Ki, nM) 1a (Bovine)
Structures can show the parent of a compound that is named as a salt.
With a cut-off of 0.09 nM, any Ki strictly below it is called Met; any Ki meeting it or above is called Not met.

> print(dat)
                                    molecule  category.label
 1  COc1cccc2c1[C@H]1CN(CCCCn3c(=O)[nH]c4c(sc5ncc(Cl)nc54)c3=O)C[C@@H]1CO2 [Example 10, hydrochloride]         Not met
 2  COc1cccc2c1[C@@H]1CN(CCCCn3c(=O)[nH]c4c(sc5cccnc54)c3=O)C[C@H]1CO2 [Example 3, hydrochloride]             Met
 3  COc1cccc2c1[C@H]1CCN(CCCCn3c(=O)[nH]c4c(sc5ncc(Cl)nc54)c3=O)C[C@@H]1CO2 [Example 96, dihydrochloride]         Not met
 4  COc1cccc2c1[C@@H]1CN(CCCCn3c(=O)[nH]c4c(sc5c(Cl)ccnc54)c3=O)C[C@H]1CO2 [Example 19, hydrochloride]             Met
 5  COc1cc2[nH]c(=O)n(CCCCN3C[C@@H]4COc5ccccc5[C@@H]4C3)c(=O)c2cc1OC (racemic) [Example 81, hydrochloride]             Met
 6  COc1cnc2sc3c(=O)n(CCCCN4CC5COc6cccc(OC)c6[C@@H]5C4)c(=O)[nH]c3c2n1.Cl (stereo in doubt) [Example 43, hydrochloride]             Met
 7  COc1cccc2c1[C@@H]1CN(CCCCCn3c(=O)[nH]c4c(sc5ccccc54)c3=O)C[C@H]1CO2 [Example 23, hydrochloride]             Met
 8  COc1cccc2c1[C@@H]1CN(CCCCn3c(=O)[nH]c4c(sc5ccccc54)c3=O)C[C@@H]1CO2 [Example 22, hydrochloride]             Met
 9  COc1cccc2c1[C@@H]1CN(CCCCn3c(=O)[nH]c4c(sc5ncc(-c6ccsc6)nc54)c3=O)C[C@H]1CO2 [Example 59, dihydrochloride]             Met
10  COc1cnc2sc3c(=O)n(CCCCN4C[C@H]5COc6cccc(OC)c6[C@@H]5C4)c(=O)[nH]c3c2c1 [Example 55, hydrochloride]         Not met
11  COc1cccc2c1[C@@H]1CN(CCCCn3c(=O)[nH]c4c(sc5ccc(OC(C)C)nc54)c3=O)C[C@H]1CO2 [Example 51, hydrochloride]             Met
12  COc1cccc2c1[C@@H]1CN(CCCCn3c(=O)[nH]c4c(sc5ccc(-c6ccccc6)nc54)c3=O)C[C@H]1CO2 [Example 52, dihydrochloride]         Not met
13  COc1cccc2c1[C@@H]1CN(CCCCn3c(=O)[nH]c4c(sc5nc(Cl)ccc54)c3=O)C[C@H]1CO2 [Example 47, hydrochloride]             Met
14  COc1cccc2c1[C@@H]1CN(CCCCn3c(=O)[nH]c4c(sc5c(OC)ccnc54)c3=O)C[C@@H]1CO2 [Example 18, dihydrochloride]             Met
15  COc1cccc2c1[C@@H]1CCN(CCCCn3c(=O)[nH]c4c(sc5ccc(-c6ccccc6)nc54)c3=O)C[C@H]1CO2 [Example 101, dihydrochloride]             Met
16  COc1cccc2c1[C@@H]1CN(CCCCn3c(=O)[nH]c4c(sc5nc(-c6ccccc6)cnc54)c3=O)C[C@@H]1CO2 [Example 40, hydrochloride]         Not met
17  COc1cccc2c1[C@@H]1CCN(CCCn3c(=O)[nH]c4c(sc5cccnc54)c3=O)C[C@H]1CO2 [Example 92, dihydrochloride]         Not met
18  COc1cccc2c1[C@@H]1CN(CCCCCn3c(=O)[nH]c4c(sc5ccccc54)c3=O)C[C@@H]1CO2 [Example 24, hydrochloride]         Not met
19  COc1ccc2c(n1)sc1c(=O)n(CCCCN3CC[C@H]4c5c(OC)cccc5OC[C@@H]4C3)c(=O)[nH]c12 [Example 103, hydrochloride]         Not met
20  COc1cccc2c1[C@@H]1CN(CCCCn3c(=O)[nH]c4c(sc5ncc(-c6cccnc6)nc54)c3=O)C[C@@H]1CO2 [Example 61, dihydrochloride]         Not met
21  COc1cccc2c1[C@@H]1CN(CCCCn3c(=O)[nH]c4c(sc5nccnc54)c3=O)C[C@@H]1CO2 [Example 15, dihydrochloride]             Met
22  COc1cccc2c1[C@@H]1CCN(CCCCn3c(=O)[nH]c4c(sc5ncccc54)c3=O)C[C@H]1CO2 (racemic) [Example 85, dihydrochloride]         Not met
23  COc1cccc2c1[C@@H]1CN(CCCCn3c(=O)[nH]c4c(sc5ncc(-c6cccnc6)nc54)c3=O)C[C@H]1CO2 [Example 60, dihydrochloride]             Met

* * *

Measured Kb values are reported for all entries that follow.
SYSTEM NAME: α-1B adrenoreceptor (Rattus norvegicus, UniProt P15823)
Construct: from tissue; host or cells: rat spleen
Sequence (P15823 whole entry): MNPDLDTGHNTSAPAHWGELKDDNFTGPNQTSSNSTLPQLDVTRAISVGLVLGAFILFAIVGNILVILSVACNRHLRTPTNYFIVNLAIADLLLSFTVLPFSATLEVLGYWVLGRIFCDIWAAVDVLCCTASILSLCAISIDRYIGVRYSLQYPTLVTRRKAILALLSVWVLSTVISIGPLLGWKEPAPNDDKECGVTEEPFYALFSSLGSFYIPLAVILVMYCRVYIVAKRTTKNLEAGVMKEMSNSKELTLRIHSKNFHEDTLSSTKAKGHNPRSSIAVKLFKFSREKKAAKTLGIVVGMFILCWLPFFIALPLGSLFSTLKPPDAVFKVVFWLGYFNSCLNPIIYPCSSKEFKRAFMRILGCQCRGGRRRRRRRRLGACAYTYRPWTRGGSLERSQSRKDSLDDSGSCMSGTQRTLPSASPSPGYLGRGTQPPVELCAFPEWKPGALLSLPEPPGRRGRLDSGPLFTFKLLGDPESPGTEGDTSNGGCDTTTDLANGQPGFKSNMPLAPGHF
ASSAY COMMENT: cell-based
SETTINGS: phenylephrine-induced contraction; Schild plot; read-out: In Vitro Characterization (pA2) Rat Spleen (converted)
Counter-ions that a name gives are not always drawn.
MEASURED PARAMETER: Kb (nM)

> print(dat)
                                   compound  data.value
1  COc1cccc2c1[C@@H]1CN(CCCCn3c(=O)[nH]c4c(sc5ncccc54)c3=O)C[C@@H]1CO2 [Example 34, hydrochloride]        7.59
2  COc1cccc2c1[C@@H]1CN(CCCCn3c(=O)[nH]c4c(sc5ccncc54)c3=O)C[C@H]1CO2 [Example 41, dihydrochloride]        3.98
3  COc1cccc2c1[C@@H]1CN(CCCCn3c(=O)[nH]c4c(sc5nc(C)ccc54)c3=O)C[C@@H]1CO2 [Example 35, hydrochloride]          11
4  COc1cccc2c1[C@@H]1CN(CCCCn3c(=O)[nH]c4c(sc5ccc(Cl)nc54)c3=O)C[C@H]1CO2 [Example 25, dihydrochloride]           2
5  COc1cccc2c1[C@@H]1CN(CCCCn3c(=O)[nH]c4c(sc5nc(C)ccc54)c3=O)C[C@H]1CO2 [Example 45, hydrochloride]        1.29
6  COc1cccc2c1[C@@H]1CN(CCCCn3c(=O)[nH]c4c(sc5cnccc54)c3=O)C[C@@H]1CO2 [Example 29, dihydrochloride]        12.3

* * *

SYSTEM NAME: α-1b adrenoreceptor (Mesocricetus auratus, UniProt P18841)
Sequence (P18841 whole entry): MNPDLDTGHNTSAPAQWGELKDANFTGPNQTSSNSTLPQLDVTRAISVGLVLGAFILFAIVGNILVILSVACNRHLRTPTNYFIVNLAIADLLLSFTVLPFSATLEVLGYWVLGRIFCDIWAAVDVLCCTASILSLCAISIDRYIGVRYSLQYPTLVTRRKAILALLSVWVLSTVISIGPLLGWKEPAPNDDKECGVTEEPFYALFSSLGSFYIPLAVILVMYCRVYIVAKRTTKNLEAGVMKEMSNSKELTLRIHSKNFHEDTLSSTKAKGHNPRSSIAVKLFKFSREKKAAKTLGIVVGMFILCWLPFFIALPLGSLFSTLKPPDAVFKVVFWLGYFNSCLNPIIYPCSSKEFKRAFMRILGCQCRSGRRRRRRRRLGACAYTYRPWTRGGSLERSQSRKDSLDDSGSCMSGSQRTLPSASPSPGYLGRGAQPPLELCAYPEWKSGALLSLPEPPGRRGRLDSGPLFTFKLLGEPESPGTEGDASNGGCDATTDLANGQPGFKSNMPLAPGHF
ASSAY COMMENT: biochemical
Format: binding, hamster
SETTINGS: [3H]-prazosin radioligand; cloned receptor in LTK cell membranes; read-out: Radioligand Binding (Ki, nM) 1b (Hamster)
Structures can show the parent of a compound that is named as a salt.
MEASURED PARAMETER: Ki (nM)

> print(dat)
                                   molecule  data.value
1  COc1cccc2c1[C@@H]1CN(CCCCn3c(=O)[nH]c4c(sc5ccc(Cl)nc54)c3=O)C[C@@H]1CO2 [Example 37, hydrochloride]        3.34
2  COc1cccc2c1[C@@H]1CN(CCCCn3c(=O)[nH]c4c(sc5ccncc54)c3=O)C[C@@H]1CO2 [Example 28, dihydrochloride]        3.69
3  COc1cccc2c1[C@@H]1CCN(CCCCn3c(=O)[nH]c4c(sc5cccnc54)c3=O)C[C@H]1CO2 [Example 95, dihydrochloride]        21.6

* * *

SYSTEM NAME: UniProt P23944
Sequence (P23944 whole entry): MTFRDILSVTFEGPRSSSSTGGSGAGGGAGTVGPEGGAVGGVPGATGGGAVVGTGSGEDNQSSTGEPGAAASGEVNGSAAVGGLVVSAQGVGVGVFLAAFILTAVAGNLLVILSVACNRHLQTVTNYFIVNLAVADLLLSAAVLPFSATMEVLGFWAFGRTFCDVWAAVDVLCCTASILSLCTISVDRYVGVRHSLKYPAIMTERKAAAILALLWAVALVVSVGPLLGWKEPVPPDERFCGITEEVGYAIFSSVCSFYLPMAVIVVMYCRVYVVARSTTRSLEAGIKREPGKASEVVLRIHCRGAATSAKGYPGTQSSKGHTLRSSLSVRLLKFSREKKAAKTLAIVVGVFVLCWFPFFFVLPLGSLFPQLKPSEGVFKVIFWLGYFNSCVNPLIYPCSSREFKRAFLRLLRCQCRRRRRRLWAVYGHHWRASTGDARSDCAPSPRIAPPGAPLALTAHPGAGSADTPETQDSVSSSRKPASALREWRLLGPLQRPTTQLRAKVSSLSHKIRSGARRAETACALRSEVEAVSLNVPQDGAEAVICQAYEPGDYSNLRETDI
ASSAY COMMENT: biochemical
Assay type: binding
SETTINGS: [3H]-prazosin radioligand; cloned receptor in LTK cell membranes; read-out: Radioligand Binding (Ki, nM) 1d (Rat)
Counter-ions that a name gives are not always drawn.
// assign Yes if Ki falls strictly below 0.4 nM, else No (ties count as No)

> print(dat)
                                    molecule  category.label
 1  COc1cccc2c1[C@@H]1CN(CCCCn3c(=O)[nH]c4c(sc5c(Cl)nccc54)c3=O)C[C@H]1CO2 [Example 54]             Yes
 2  COc1cccc2c1[C@@H]1CCN(CCCCn3c(=O)[nH]c4c(sc5ccc(-c6ccccc6)nc54)c3=O)C[C@H]1CO2 [Example 101, dihydrochloride]              No
 3  COc1cccc2c1[C@@H]1CN(CCCCn3c(=O)[nH]c4c(sc5ncc(-c6ccccc6)nc54)c3=O)C[C@@H]1CO2 [Example 39, hydrochloride]              No
 4  COc1cccc2c1[C@@H]1CN(CCCCn3c(=O)[nH]c4c(sc5ccnc(OC)c54)c3=O)C[C@H]1CO2 [Example 49]             Yes
 5  COc1cccc2c1[C@@H]1CN(CCCCn3c(=O)[nH]c4c(sc5c(Cl)ccnc54)c3=O)C[C@@H]1CO2 [Example 20, hydrochloride]              No
 6  COc1cc2[nH]c(=O)n(CCCN3CC[C@H]4c5c(OC)cccc5OC[C@@H]4C3)c(=O)c2cc1OC (racemic) [Example 83, hydrochloride]              No
 7  COc1cccc2c1[C@@H]1CN(CCCCCn3c(=O)[nH]c4c(sc5ccccc54)c3=O)C[C@H]1CO2 [Example 23, hydrochloride]              No
 8  COc1cnc2c(c1)sc1c(=O)n(CCCCN3C[C@H]4COc5cccc(OC)c5[C@@H]4C3)c(=O)[nH]c12 [Example 27, hydrochloride]             Yes
 9  COc1cnc2sc3c(=O)n(CCCCN4C[C@@H]5COc6cccc(OC)c6[C@@H]5C4)c(=O)[nH]c3c2n1 [Example 31, hydrochloride]             Yes
10  COc1cc(O)cc2c1[C@@H]1CN(CCCCn3c(=O)[nH]c4c(sc5ncc(-c6ccccc6)nc54)c3=O)C[C@@H]1CO2 (relative stereo) [Example 104]              No
11  COc1cc2[nH]c(=O)n(CCCCN3C[C@@H]4COc5ccccc5[C@@H]4C3)c(=O)c2cc1OC (racemic) [Example 81, hydrochloride]             Yes
12  COc1cccc2c1[C@@H]1CN(CCCCn3c(=O)[nH]c4c(sc5ncc(-c6cccnc6)nc54)c3=O)C[C@@H]1CO2 [Example 61, dihydrochloride]             Yes
